Biological target: DYRK3 (human) (UniProt O43781)
Sequence (O43781 whole entry, looked up): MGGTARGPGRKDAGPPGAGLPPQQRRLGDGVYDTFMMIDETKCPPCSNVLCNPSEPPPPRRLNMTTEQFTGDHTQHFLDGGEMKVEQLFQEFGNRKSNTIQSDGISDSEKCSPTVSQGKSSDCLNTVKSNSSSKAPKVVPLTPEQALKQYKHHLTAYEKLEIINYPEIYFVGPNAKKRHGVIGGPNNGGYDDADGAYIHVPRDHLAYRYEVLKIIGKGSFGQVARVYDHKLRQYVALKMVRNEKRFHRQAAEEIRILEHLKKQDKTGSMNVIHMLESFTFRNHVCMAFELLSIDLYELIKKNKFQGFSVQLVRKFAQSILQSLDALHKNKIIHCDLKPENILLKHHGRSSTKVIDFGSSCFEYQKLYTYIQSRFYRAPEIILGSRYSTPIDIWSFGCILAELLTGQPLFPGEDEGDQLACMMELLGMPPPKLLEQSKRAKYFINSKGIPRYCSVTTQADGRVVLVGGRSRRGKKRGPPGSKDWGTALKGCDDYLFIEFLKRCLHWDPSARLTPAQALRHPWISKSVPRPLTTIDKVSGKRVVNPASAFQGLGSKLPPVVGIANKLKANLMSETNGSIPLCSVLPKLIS
Assay: radiometric filter-binding kinase assay, Kinase HotSpot
Conditions: compound 0.5 µM; ATP 10 µM
// reported residual activity for each item listed
Give the value in % but do not write % after it.

Nc1nccc(-c2c(-c3ccc(F)cc3)ncn2C2CCNCC2)n1 :: 96
O=C1NC(=O)C(c2cn(CCCO)c3ncccc23)=C1c1cnccn1 :: 79.6
COc1cc2ncc(-c3ccccc3)nc2cc1OC :: 95.4
COc1ccc(OC)c2c(=S)c3ccccc3[nH]c12 :: 98.2
Nc1nnc2[nH]c3ccccc3nc1-2 :: 102
O=C1NC(=O)C(c2c[nH]c3ccccc23)=C1c1c[nH]c2ccccc12 :: 101
O=C1Cc2c([nH]c3ccc(Br)cc23)-c2ccccc2N1 :: 113
O=C1Nc2ccccc2/C1=C1\Nc2ccccc2\C1=N/O :: 106

Please give measured residual activity of the following entry: CC(C)[C@H](CO)Nc1nc(Nc2cc(N)cc(Cl)c2)c2ncn(C(C)C)c2n1
103

Please give measured residual activity of the following entry: Cn1cnc2cc3c(Nc4cccc(Br)c4)ncnc3cc21
102

Please give measured residual activity of the following entry: CN(C)C[C@H]1CCn2c(c(C3=C(c4cn(C)c5ccccc45)C(=O)NC3=O)c3ccccc32)C1
102
